Test system: Nilaparvata lugens
Test: Insecticidal activities to plant hopper, spraying method
Format: in vivo
Conditions: in vivo
Experimental: Mortality (%)=(the number of the survival aphis in control group−the number of the survival aphis in the treatment group)/the number of the survival aphis in control group×100% (2): Insecticidal Activities to Plant hopper Plant hopper (Nilaparvata lugens), which belongs to Homoptera and has a piercing-sucking mouthpart, is a common insect for agricultural plant. Nilaparvata lugens was tested by spraying method. […]
Quick list: Nilaparvata lugens Mortality (%) 500 ppm per entry.

| molecule | Nilaparvata lugens Mortality (%) 500 ppm |
| --- | --- |
| N#CC(=Cc1ccsc1)C1=NCCN1Cc1ccc(Cl)nc1 | 100 |
| CC(=C(C1=NCCN1C(C)c1ccc(Cl)nc1)[N+](=O)[O-])c1ccco1 (racemic) | 50 |
| C[N+]1=C(C(=Cc2cc(Br)c(Br)o2)[N+](=O)[O-])N(Cc2ccc(Cl)nc2)CC1.[Cl-] | 100 |
| CCN(C(=NC)C(=Cc1cccs1)[N+](=O)[O-])C(C)c1ccc(Cl)nc1 (centres unmarked) | 100 |
| O=[N+]([O-])C(=Cc1cc(Br)cs1)C1=NCCCN1Cc1ccc(Cl)nc1 | 83 |
| O=[N+]([O-])C(=Cc1cc(Cl)c(Cl)o1)C1=NCCN1Cc1ccccc1 | 95 |
| CC(c1ccc(Cl)nc1)N1CCN=C1C(=Cc1ccc([N+](=O)[O-])s1)[N+](=O)[O-] (racemic) | 100 |
| O=[N+]([O-])C(=Cc1ccc(CO)o1)C1=NCCN1Cc1cnc(Cl)s1 | 100 |
| Cc1ccc(C=C(C2=[N+](C)CCN2Cc2ccc(Cl)nc2)[N+](=O)[O-])s1.[Cl-] | 100 |
| O=[N+]([O-])C(=Cc1oc(Cl)cc1Cl)C1=NCCN1Cc1ccccc1 | 100 |
| CCN(Cc1ccc(Cl)nc1)C(=NC)C(=Cc1ccc[nH]1)[N+](=O)[O-] [Compound 243] | 100 |
| CCN(Cc1cnc(Cl)s1)C(=NC)C(=Cc1ccc([N+](=O)[O-])o1)[N+](=O)[O-] | 100 |
| O=[N+]([O-])C(=Cc1cc(Cl)co1)C1=NCCN1CC1CCOC1 (centres unmarked) | 50 |
| CCc1ccc(C=C(C2=NCCN2CC2CCOC2)[N+](=O)[O-])o1 (centres unmarked) | 65 |
| C[N+]1=C(C(=Cc2ccc(Br)o2)[N+](=O)[O-])N(Cc2ccc(Cl)nc2)CC1.[Cl-] | 100 |
| O=[N+]([O-])C(=Cc1ccc(Br)o1)C1=NCCN1Cc1ccc(Cl)nc1 | 100 |
| O=[N+]([O-])C(=Cc1cncs1)C1=NCCN1Cc1ccc(Cl)nc1 | 100 |

* * *

test system: Aphis craccivoral; assay: Insecticidal activities to aphids, immersion method; type: in vivo; settings: in vivo
Some molecules, each annotated with its measured Aphis craccivoral Mortality (%) 500 ppm.

| molecule | Aphis craccivoral Mortality (%) 500 ppm |
| --- | --- |
| C[N+]1=C(C(=Cc2oc(Cl)cc2Cl)[N+](=O)[O-])N(Cc2ccc(Cl)nc2)CC1.[Cl-] | 100 |
| O=[N+]([O-])C(=Cc1ccc(CO)o1)C1=NCCCN1Cc1ccc(Cl)nc1 | 47 |
| CCN(C(=NC)C(=Cc1cccs1)[N+](=O)[O-])C(C)c1ccc(Cl)nc1 (centres unmarked) | 100 |
| O=[N+]([O-])C(=Cc1cccs1)C1=NCCCN1Cc1ccc(Cl)nc1 | 100 |
| C[N+]1=C(C(=Cc2ccc(Cl)s2)[N+](=O)[O-])N(Cc2cnc(Cl)s2)CC1.[Cl-] | 100 |
| CN=C(C(=C(C)c1ccc([N+](=O)[O-])s1)[N+](=O)[O-])N(C)C(C)c1ccc(Cl)nc1 (centres unmarked) | 98 |
| N#CC(=Cc1oc(Cl)cc1Cl)C1=NCCN1Cc1ccc(Cl)nc1 | 75 |
| CCN(Cc1ccc(Cl)nc1)C(=NC)C(=Cc1ccco1)[N+](=O)[O-] [Compound 241] | 68 |

* * *

system: Aphis craccivoral; assay: Insecticidal activities to aphids, immersion method; assay type: in vivo; settings: in vivo

| compound | Aphis craccivoral Mortality (%) 500 ppm |
| --- | --- |
| C[N+]1=C(C(=Cc2cc(Cl)c(Cl)s2)[N+](=O)[O-])N(Cc2ccc(Cl)nc2)CC1.[Cl-] [Compound 266] | 100 |
| O=[N+]([O-])C(=Cc1cc(Cl)co1)C1=NCCCN1Cc1ccc(Cl)nc1 [Compound 51] | 100 |
| CCN(Cc1ccc(Cl)nc1)C(=NC)C(=C(C)c1ccc(Br)o1)[N+](=O)[O-] [Compound 199] | 84 |
| CCN(Cc1ccc(Cl)nc1)C(=NC)C(=C(C)c1ccc([N+](=O)[O-])s1)[N+](=O)[O-] [Compound 202] | 100 |

* * *

system: Nilaparvata lugens; test: Insecticidal activities to plant hopper, spraying method; format: in vivo; details: in vivo

| compound | Nilaparvata lugens Mortality (%) 500 ppm |
| --- | --- |
| CN=C(C(=Cc1ccc(Cl)s1)[N+](=O)[O-])N(C)Cc1cnc(Cl)s1 [Compound 223] | 53 |
| O=[N+]([O-])C(=Cc1oc(Br)cc1Br)C1=NCCN1Cc1cnc(Cl)s1 [Compound 78] | 100 |
| CCN(Cc1ccc(Cl)nc1)C(=NC)C(=C(C)c1ccc([N+](=O)[O-])s1)[N+](=O)[O-] [Compound 202] | 100 |
| CC(=C(C1=NCCN1Cc1ccc(Cl)nc1)[N+](=O)[O-])c1ccsc1 [Compound 116] | 94 |
| CC[N+]1=C(C(=Cc2ccc(Cl)o2)[N+](=O)[O-])N(Cc2ccc(Cl)nc2)CC1.[Cl-] [Compound 288] | 100 |
| Cn1cccc1C=C(C1=NCCN1Cc1ccc(Cl)nc1)[N+](=O)[O-] [Compound 32] | 100 |
| CCN(Cc1ccc(Cl)nc1)C(=NC)C(=Cc1ccc(Cl)s1)[N+](=O)[O-] [Compound 187] | 100 |
| N#CC(=Cc1ccc([N+](=O)[O-])o1)C1=NCCN1Cc1ccc(Cl)nc1 [Compound 142] | 100 |
| CCc1ccc(C=C(C2=NCCCN2Cc2ccc(Cl)nc2)[N+](=O)[O-])o1 [Compound 59] | 84 |
| O=[N+]([O-])C(=Cc1cc(Br)c(Br)o1)C1=NCCCN1Cc1ccc(Cl)nc1 [Compound 55] | 100 |
| CN=C(NCc1ccc(Cl)nc1)C(=Cc1cccs1)[N+](=O)[O-] [Compound 156] | 90 |
| CC(=C(C1=NCCN1Cc1ccc(Cl)nc1)[N+](=O)[O-])c1ccco1 [Compound 111] | 53 |
| CC[N+]1=C(C(=Cc2ccc(Br)o2)[N+](=O)[O-])N(Cc2ccc(Cl)nc2)CC1.[Cl-] [Compound 289] | 100 |
| CN=C(NCc1ccc(Cl)nc1)C(=Cc1ccc(Cl)o1)[N+](=O)[O-] [Compound 154] | 65 |
| CN=C(C(=Cc1ccc(Cl)o1)[N+](=O)[O-])N(C)Cc1cnc(Cl)s1 [Compound 218] | 86 |
| CN=C(C(=Cc1ccc([N+](=O)[O-])s1)[N+](=O)[O-])N(C)Cc1ccc(Cl)nc1 [Compound 238] | 98 |
| O=[N+]([O-])C(=Cc1ccoc1)C1=NCCN1Cc1ccccc1 [Compound 104] | 100 |

* * *

Listed molecules paired with reported Pseudaletia separate Walker Mortality (%) 500 ppm
system: Pseudaletia separate Walker; experiment: Insecticidal activities to armyworm, leaf dipping and feeding; format: in vivo; conditions: in vivo
measured-endpoint: Pseudaletia separate Walker Mortality (%) 500 ppm

| molecule | unit-of-measurement | observed |
| --- | --- | --- |
| O=[N+]([O-])C(=Cc1ccc(Br)s1)C1=NCCCN1Cc1ccc(Cl)nc1 [Compound 65] | % | 92 |
| O=[N+]([O-])C(=Cc1cccnc1)C1=NCCN1Cc1ccc(Cl)nc1 [Compound 38] | % | 95 |
| Cc1csc(C=C(C2=[N+](C)CCN2Cc2ccc(Cl)nc2)[N+](=O)[O-])c1.[Cl-] [Compound 271] | % | 100 |
| CCc1ccc(C=C(C2=NCCN2CC2CCOC2)[N+](=O)[O-])o1 (stereo not shown) [Compound 101] | % | 65 |
| CCc1ccc(C=C(C2=[N+](C)CCN2Cc2ccc(Cl)nc2)[N+](=O)[O-])o1.[Cl-] [Compound 257] | % | 100 |
| O=[N+]([O-])C(=Cc1cc(Cl)c(Cl)s1)C1=NCCN1Cc1ccc(Cl)nc1 [Compound 23] | % | 100 |
| C[N+]1=C(C(=Cc2cc(Br)c(Br)o2)[N+](=O)[O-])N(Cc2ccc(Cl)nc2)CC1.[Cl-] [Compound 253] | % | 100 |
| CC(=C(C1=NCCN1C(C)c1ccc(Cl)nc1)[N+](=O)[O-])c1ccco1 (racemic) [Compound 133] | % | 90 |
| Cc1ccc(C=C(C2=[N+](C)CCN2Cc2ccc(Cl)nc2)[N+](=O)[O-])s1.[Cl-] [Compound 270] | % | 100 |
| CC[N+]1=C(/C(=C\c2ccc[nH]2)[N+](=O)[O-])N(Cc2ccc(Cl)nc2)CC1.[Cl-] [Compound 295] | % | 100 |
| O=[N+]([O-])C(=Cc1ccc(Cl)o1)C1=NCCN1CC1CCOC1 (stereo not shown) [Compound 94] | % | 77 |
| O=[N+]([O-])C(=Cc1cc(Br)c(Br)o1)C1=NCCN1Cc1ccc(Cl)nc1 [Compound 10] | % | 100 |
| C[N+]1=C(C(=Cc2cc(Br)cs2)[N+](=O)[O-])N(Cc2ccc(Cl)nc2)CC1.[Cl-] [Compound 265] | % | 100 |
| C[N+]1=C(C(=Cc2ccoc2)[N+](=O)[O-])N(Cc2ccc(Cl)nc2)CC1.[Cl-] [Compound 245] | % | 100 |
| O=[N+]([O-])C(=Cc1ccc(Br)o1)C1=NCCN1Cc1cnc(Cl)s1 [Compound 72] | % | 100 |
| C[N+]1=C(/C(=C\c2ccc[nH]2)[N+](=O)[O-])N(Cc2cnc(Cl)s2)CC1.[Cl-] [Compound 284] | % | 100 |
